# ASSAY_PROTOCOL: AUC (0 to infinity) in C57BL/6 mouse at 30 mg/kg, po by LC-MS/MS analysis
# Assay type: ADME, organism-based
# Design: time infinity, dose 30 mg/kg, route po
# SETTINGS: in vivo
PROPERTY_LABEL: AUC(0-inf) (ng·h/mL)
Record the value in ng·h/mL, omitting the unit from your answer.

# AUC(0-inf) (molecule: O=C(O)C1CCN(c2ccc3c(=O)c4cccc(Cl)c4oc3c2)C1 (racemic) ) is 31400

---

# ASSAY_PROTOCOL: Dose normalized AUC (0 to 12 hrs) in C3H/J mouse at 300 mg/kg, po by LC-MS/MS analysis
# Type: ADME, organism-based
# SETTINGS: in vivo
PROPERTY_LABEL: AUC/dose

# AUC/dose (compound: O=C(O)[C@@H]1CCN(c2ccc3c(=O)c4cccc(Cl)c4oc3c2)C1 ) is 1510 (ng·h/mL)/(mg/kg)

---

# ASSAY_PROTOCOL: Octanol-aqueous buffer distribution coefficient, log D of the compound at pH 7.4 by CAMDIS assay
# Type: physicochemical
PROPERTY_LABEL: logD
Lab note: record the figure alone, no unit after it.

# logD (molecule: O=C(O)[C@@H]1CCN(c2ccc3c(=O)c4cccc(Cl)c4oc3c2)C1 ) is 1

# logD (molecule: O=C(O)C1CCN(c2ccc3c(=O)c4c(O)ccc(Cl)c4oc3c2)C1 (stereo not given) ) is 1.71

# logD (molecule: O=C(O)C1(C(F)(F)F)CCN(c2ccc3c(=O)c4cccc(Cl)c4oc3c2)C1 (stereo not given) ) is 1.26

# logD (molecule: O=C(O)C1CCN(c2ccc3c(=O)c4c(Cl)ccc(Cl)c4oc3c2)C1 (stereo not given) ) is 1.44

# logD (molecule: Cc1ccc(Cl)c2oc3cc(N4CCC(C(=O)O)C4)ccc3c(=O)c12 (stereo not given) ) is 1.75

# logD (molecule: CC1(C(=O)O)CCN(c2ccc3c(=O)c4cccc(Cl)c4oc3c2)C1 (stereo not given) ) is 1.73

# logD (molecule: O=C(O)[C@H]1CCN(c2ccc3c(=O)c4cccc(Cl)c4oc3c2)C1 ) is 1.09

---

# ASSAY_PROTOCOL: Tmax in C3H/J mouse at 5 mg/kg, po by LC-MS/MS analysis
# Assay type: ADME, organism-based
# SETTINGS: in vivo
PROPERTY_LABEL: Tmax
Quick note: unit goes after the number.

# Tmax (compound: O=C(O)[C@@H]1CCN(c2ccc3c(=O)c4cccc(Cl)c4oc3c2)C1 ) is 15 min

---

# ASSAY_PROTOCOL: Aqueous solubility of the compound
# Type: physicochemical
# SETTINGS: buffer
Hi there, I'd appreciate the recorded solubility for every entry that follows.

# solubility (molecule: CC(=O)Nc1ccc2c(=O)c3cccc(F)c3oc2c1 ) is < 1 µg/mL

# solubility (molecule: O=C1Nc2ccc(N3CCCC3)cc2Oc2c(Cl)cccc21 ) is < 1 µg/mL

# solubility (molecule: O=C(O)C1CCN(c2cc3oc4c(Cl)cccc4c(=O)c3cn2)C1 (stereo not given) ) is > 395 µg/mL

# solubility (molecule: O=C(Nc1ccc2c(=O)c3cccc(F)c3oc2c1)c1ccccc1O ) is < 1 µg/mL

# solubility (molecule: O=C(O)C1CCCN1c1ccc2c(=O)c3cccc(Cl)c3oc2c1 (stereo not given) ) is 290 µg/mL

# solubility (molecule: O=C(O)[C@H]1CCN(c2ccc3c(=O)c4cccc(Cl)c4oc3c2)C1 ) is > 430 µg/mL

# solubility (molecule: O=c1c2ccc(N3CCC(O)C3)cc2oc2c(F)cccc12 (stereo not given) ) is < 1 µg/mL

# solubility (molecule: CCOc1ccc(Cl)c2oc3cc(N4CCC(C(=O)O)C4)ccc3c(=O)c12 (stereo not given) ) is 330 µg/mL

# solubility (molecule: O=C(Nc1ccc2c(=O)c3cccc(Cl)c3oc2c1)c1ccccc1[N+](=O)[O-] ) is < 1 µg/mL

# solubility (molecule: O=C(O)C1CCN(c2ccc3c(=O)c4c(Cl)ccc(Cl)c4oc3c2)C1 (single isomer, unassigned) ) is 29 µg/mL

---

Hi there, I'd appreciate the recorded solubility for every entry that follows.
# ASSAY_PROTOCOL: Aqueous solubility of the compound
# Assay type: physicochemical
# SETTINGS: buffer

# solubility (compound: O=C(O)C1CCN(c2ccc3c(=O)c4c(F)ccc(Cl)c4oc3c2)C1 (stereo unspecified) ) is 14 µg/mL

# solubility (compound: O=C(O)C1CCN(c2ccc3c(=O)c4cccc(Cl)c4oc3c2)C1 (racemic) ) is < 435 µg/mL

# solubility (compound: O=C(O)c1cc2c(=O)c3cccc(Cl)c3oc2cc1N1CCCC1 ) is 30 µg/mL

# solubility (compound: O=c1c2ccc(N3CCCC3)cc2oc2c(F)cccc12 ) is < 1 µg/mL

# solubility (compound: O=C(Nc1ccc2c(=O)c3cccc(F)c3oc2c1)c1ccncc1F ) is < 1 µg/mL

# solubility (compound: CC1c2ccc(N3CCCC3)cc2Oc2c(Cl)cccc21 (stereo unspecified) ) is < 1 µg/mL

---

# ASSAY_PROTOCOL: Permeability of the compound by PAMPA analysis
# Type: ADME
# SETTINGS: read-out: permeability
Hi there, I'd appreciate the recorded Papp for every entry that follows.
Record the value in ×10⁻⁶ cm/s, omitting the unit from your answer.

# Papp (compound: O=C1Nc2ccc(N3CCCC3)cc2Oc2c(Cl)cccc21 ) is 2.09

# Papp (compound: O=C(O)C1CCN(c2ccc3c(=O)c4cccc(Cl)c4oc3c2)C1 (racemic) ) is 2.27

# Papp (compound: O=C(O)C1(C(F)(F)F)CCN(c2ccc3c(=O)c4cccc(Cl)c4oc3c2)C1 (configuration not stated) ) is 1.78

# Papp (compound: O=c1c2ccc(N3CCCC3)nc2oc2c(F)cccc12 ) is 9.1

# Papp (compound: OC1(C(F)(F)F)c2ccc(N3CCCC3)cc2Oc2c(Cl)cccc21 (configuration not stated) ) is 6.73

# Papp (compound: O=c1c2ccc(N3CCOCC3)cc2oc2c(F)cccc12 ) is 1.8

# Papp (compound: O=C(O)C1CCN(c2ccc3c(=O)c4c(O)ccc(Cl)c4oc3c2)C1 (configuration not stated) ) is 0.53

# Papp (compound: O=C(O)C1CCN(c2ccc3c(c2)Oc2c(Cl)cccc2S3(=O)=O)C1 (configuration not stated) ) is 1.26

# Papp (compound: CC1(C(=O)O)CCN(c2ccc3c(=O)c4cccc(Cl)c4oc3c2)C1 (configuration not stated) ) is 2.03

# Papp (compound: O=C(O)c1cc2c(=O)c3cccc(Cl)c3oc2cc1N1CCCC1 ) is 8.64

# Papp (compound: CCNc1ccc2c(=O)c3cccc(F)c3oc2c1 ) is 0.36

# Papp (compound: CC1(C)CN(c2ccc3c(=O)c4cccc(Cl)c4oc3c2)CC1C(=O)O (configuration not stated) ) is 0.98

# Papp (compound: O=C1Nc2ccc(N3CCC(C(=O)O)C3)cc2Oc2c(Cl)cccc21 (configuration not stated) ) is 1

# Papp (compound: O=C(Nc1ccc2c(=O)c3cccc(F)c3oc2c1)c1ccccc1 ) is 0.22

# Papp (compound: O=C(O)C1CCCN(c2ccc3c(=O)c4cccc(Cl)c4oc3c2)C1 (configuration not stated) ) is 2.43

# Papp (compound: O=C(O)[C@@H]1CCN(c2ccc3c(=O)c4cccc(Cl)c4oc3c2)C1 ) is 2.82

# Papp (compound: N#Cc1ccc(Cl)c2oc3cc(N4CCC(C(=O)O)C4)ccc3c(=O)c12 (configuration not stated) ) is 0.8

# Papp (compound: O=C(O)C1CCN(c2cc3oc4c(Cl)cccc4c(=O)c3cn2)C1 (configuration not stated) ) is 0.96

# Papp (compound: O=C(O)[C@H]1CCN(c2ccc3c(=O)c4cccc(Cl)c4oc3c2)C1 ) is 3.02

# Papp (compound: O=C(O)C1CCN(c2cc3oc4c(Cl)cccc4c(=O)c3cc2Cl)C1 (configuration not stated) ) is 1.59

# Papp (compound: Clc1cccc2c1Oc1cc(N3CCCC3)ccc1C2C1COC1 (configuration not stated) ) is 0.09

# Papp (compound: Cc1cc2c(=O)c3cccc(Cl)c3oc2cc1N1CCC(C(=O)O)C1 (configuration not stated) ) is 1.34

---

# ASSAY_PROTOCOL: Dose normalized AUC (0 to 24 hrs) in C3H/J mouse at 100 mg/kg, po by LC-MS/MS analysis
# Format: ADME, organism-based
# SETTINGS: in vivo
PROPERTY_LABEL: AUC/dose

# AUC/dose (molecule: O=C(O)[C@@H]1CCN(c2ccc3c(=O)c4cccc(Cl)c4oc3c2)C1 ) is 1200 (ng·h/mL)/(mg/kg)

---

# ASSAY_PROTOCOL: AUC (0 to infinity) in C57BL/6 mouse at 2 mg/kg, iv by LC-MS/MS analysis
# Type: ADME, organism-based
# Design: time infinity, dose 2 mg/kg, route iv
# SETTINGS: in vivo
PROPERTY_LABEL: AUC(0-inf) (ng·h/mL)
Record the value in ng·h/mL, omitting the unit from your answer.

# AUC(0-inf) (molecule: O=C(O)C1CCN(c2ccc3c(=O)c4cccc(Cl)c4oc3c2)C1 (racemic) ) is 1900

The reported numbers originate from ChEMBL document CHEMBL5137099.
